Target: Albumin (Homo sapiens)
Assay: Binding affinity to human serum albumin with excitation at 285 nm by fluorescence emission spectroscopic analysis
Type: ADME

| Structure string | Target of assay | Kd, nM |
| --- | --- | --- |
| C=C(C)[C@@H]1CC[C@]2(C(=O)O)CC[C@]3(C)[C@H](CC[C@@H]4[C@@]5(C)CC[C@H](O)C(C)(C)[C@@H]5CC[C@]43C)[C@@H]12 | Albumin (Homo sapiens) | 593 |

---

// IC50 lookup, one value per entry
System: Human alphaherpesvirus 1
Assay: Antiviral activity against HSV-1 KOS infected in African green monkey RC-37 cells assessed as inhibition of viral replication incubated with virus for 1 hr followed by viral adsorbtion to cells for 1 hr measured after 3 days by plaque reduction assay
Format: functional, organism-based
Details: Human alphaherpesvirus 1, KOS
Property measured: IC50 (nM)

| Structure string | Target of assay | Property measured | Measured |
| --- | --- | --- | --- |
| C=C(C)[C@@H]1CC[C@]2(C(=O)O)CC[C@]3(C)[C@H](CC[C@@H]4[C@@]5(C)CC[C@H](O)C(C)(C)[C@@H]5CC[C@]43C)[C@@H]12 | Human alphaherpesvirus 1 | IC50 | 700 |
| C=C(C)[C@@H]1CC[C@]2(CO)CC[C@]3(C)[C@H](CC[C@@H]4[C@@]5(C)CC[C@H](O)C(C)(C)[C@@H]5CC[C@]43C)[C@@H]12 | Human alphaherpesvirus 1 | IC50 | 700 |

---

Assay: Cytotoxicity against African green monkey Vero cells assessed as cell viability after 48 hrs by Alamar Blue assay
Type: cell-based
Conditions: chlorocebus sabaeus
Listed compounds paired with reported CC50 at 48 h

| Structure string | CC50 at 48 h |
| --- | --- |
| C=C(C)[C@@H]1CC[C@]2(C(=O)[O-])CC[C@]3(C)[C@H](CC[C@@H]4[C@@]5(C)CC[C@H](O)C(C)(C)[C@@H]5CC[C@]43C)[C@@H]12.C[N+](C)(C)CCO | > 100 µM |
| C=C(C)[C@@H]1CC[C@]2(C(=O)N[C@H](C)C(=O)[O-])CC[C@]3(C)[C@H](CC[C@@H]4[C@@]5(C)CC[C@H](O)C(C)(C)[C@@H]5CC[C@]43C)[C@@H]12.C[N+](C)(C)CCO | > 100 µM |
| C=C(C)[C@@H]1CC[C@]2(C(=O)[O-])CC[C@]3(C)[C@H](CC[C@@H]4[C@@]5(C)CC[C@H](O)C(C)(C)[C@@H]5CC[C@]43C)[C@@H]12.CCCCCCCCCCCC[N+](C)(C)Cc1ccccc1 | 12 µM |
| C=C(C)[C@@H]1CC[C@]2(C(=O)N[C@H](C)C(=O)[O-])CC[C@]3(C)[C@H](CC[C@@H]4[C@@]5(C)CC[C@H](O)C(C)(C)[C@@H]5CC[C@]43C)[C@@H]12.CCCCCCCCCCCC[N+](C)(C)Cc1ccccc1 | 10.5 µM |

---

Test: Cytotoxicity against African green monkey Vero cells after 2 days by neutral red uptake assay
Assay type: cell-based
Details: chlorocebus sabaeus

| Compound | CC50 at 48 h, µM |
| --- | --- |
| C=C(C)[C@@H]1CC[C@]2(CO)CC[C@]3(C)[C@H](CC[C@@H]4[C@@]5(C)CC[C@H](O)C(C)(C)[C@@H]5CC[C@]43C)[C@@H]12 [BETULIN] | 165 |

---

Target: UniProt P02768
Assay: Binding affinity to human serum albumin with excitation at 285 nm after 30 mins by fluorescence spectrophotometric analysis
Format: ADME
Each entry below carries its reported log10 of Kd.
Property measured: log10 of Kd (log10 of the value in µM)

| Structure string | log10 of Kd |
| --- | --- |
| C=C(C)[C@@H]1CC[C@]2(C(=O)[O-])CC[C@]3(C)[C@H](CC[C@@H]4[C@@]5(C)CC[C@H](O)C(C)(C)[C@@H]5CC[C@]43C)[C@@H]12.C[N+](C)(C)CCO | 0.59 |
| C=C(C)[C@@H]1CC[C@]2(C(=O)[O-])CC[C@]3(C)[C@H](CC[C@@H]4[C@@]5(C)CC[C@H](O)C(C)(C)[C@@H]5CC[C@]43C)[C@@H]12.CCCCCCCCCCCC[N+](C)(C)Cc1ccccc1 | 0.20 |
| C=C(C)[C@@H]1CC[C@]2(C(=O)N[C@H](C)C(=O)[O-])CC[C@]3(C)[C@H](CC[C@@H]4[C@@]5(C)CC[C@H](O)C(C)(C)[C@@H]5CC[C@]43C)[C@@H]12.C[N+](C)(C)CCO | 1.67 |
| C=C(C)[C@@H]1CC[C@]2(C(=O)N[C@H](C)C(=O)[O-])CC[C@]3(C)[C@H](CC[C@@H]4[C@@]5(C)CC[C@H](O)C(C)(C)[C@@H]5CC[C@]43C)[C@@H]12.CCCCCCCCCCCC[N+](C)(C)Cc1ccccc1 | 1.28 |
| C=C(C)[C@@H]1CC[C@]2(C(=O)O)CC[C@]3(C)[C@H](CC[C@@H]4[C@@]5(C)CC[C@H](O)C(C)(C)[C@@H]5CC[C@]43C)[C@@H]12 | 0.65 |

---

Target: Albumin (Homo sapiens, UniProt P02768)
Sequence (P02768 whole entry): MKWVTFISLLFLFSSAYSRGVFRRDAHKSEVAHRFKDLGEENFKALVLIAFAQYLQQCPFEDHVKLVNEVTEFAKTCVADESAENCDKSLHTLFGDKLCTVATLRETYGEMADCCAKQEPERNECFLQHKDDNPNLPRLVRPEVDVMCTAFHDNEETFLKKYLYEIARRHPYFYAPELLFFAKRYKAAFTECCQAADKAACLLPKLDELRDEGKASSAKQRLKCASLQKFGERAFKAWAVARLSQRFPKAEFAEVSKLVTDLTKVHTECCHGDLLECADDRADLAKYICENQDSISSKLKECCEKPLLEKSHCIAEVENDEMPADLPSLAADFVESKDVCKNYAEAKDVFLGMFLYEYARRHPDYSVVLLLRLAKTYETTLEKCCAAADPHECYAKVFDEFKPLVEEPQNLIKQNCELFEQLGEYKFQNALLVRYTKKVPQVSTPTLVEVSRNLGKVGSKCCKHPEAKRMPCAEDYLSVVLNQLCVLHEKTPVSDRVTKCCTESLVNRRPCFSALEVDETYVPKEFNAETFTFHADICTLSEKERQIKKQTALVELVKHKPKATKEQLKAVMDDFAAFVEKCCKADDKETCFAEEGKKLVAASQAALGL
Experiment: Binding affinity to human serum albumin with excitation at 295 nm after 30 mins by fluorescence spectrophotometric analysis
Type: ADME
pKd: −log10 of the molar value.

| Structure string | Target of assay | pKd |
| --- | --- | --- |
| C=C(C)[C@@H]1CC[C@]2(C(=O)O)CC[C@]3(C)[C@H](CC[C@@H]4[C@@]5(C)CC[C@H](O)C(C)(C)[C@@H]5CC[C@]43C)[C@@H]12 | Albumin (Homo sapiens, UniProt P02768) | 5.89 |
| C=C(C)[C@@H]1CC[C@]2(C(=O)N[C@H](C)C(=O)[O-])CC[C@]3(C)[C@H](CC[C@@H]4[C@@]5(C)CC[C@H](O)C(C)(C)[C@@H]5CC[C@]43C)[C@@H]12.CCCCCCCCCCCC[N+](C)(C)Cc1ccccc1 | Albumin (Homo sapiens, UniProt P02768) | 4.72 |
| C=C(C)[C@@H]1CC[C@]2(C(=O)[O-])CC[C@]3(C)[C@H](CC[C@@H]4[C@@]5(C)CC[C@H](O)C(C)(C)[C@@H]5CC[C@]43C)[C@@H]12.C[N+](C)(C)CCO | Albumin (Homo sapiens, UniProt P02768) | 5.40 |

---

System: Human alphaherpesvirus 1
Experiment: Antiviral activity against HSV-1 7401H infected in African green monkey Vero cells after 2 to 3 days by plaque reduction assay
Settings: Human alphaherpesvirus 1, 7401H
pIC50: −log10 of the molar value.
Property measured: pIC50

| Structure string | Measured |
| --- | --- |
| C=C(C)[C@@H]1CC[C@]2(C(=O)O)CC[C@]3(C)[C@H](CC[C@@H]4[C@@]5(C)CCC(=O)C(C)(C)[C@@H]5CC[C@]43C)[C@@H]12 | 5.24 |

---

Assay: Cytotoxicity against African green monkey Vero cells assessed as cell viability after 3 days by MTT assay
Assay type: cell-based
Details: chlorocebus sabaeus

| Structure string | CC50 at 72 h / µM |
| --- | --- |
| C=C(C)[C@@H]1CC[C@]2(C(=O)O)CC[C@]3(C)[C@H](CC[C@@H]4[C@@]5(C)CC[C@@H](OS(=O)(=O)O)C(C)(C)[C@@H]5CC[C@]43C)[C@@H]12 | 228 |

---

Experiment: Cytotoxicity against African green monkey RC-37 cells assessed as cell viability after 3 days by neutral red uptake assay
Assay type: cell-based
Conditions: chlorocebus aethiops
CC50 at 72 h listing for selected compounds.
Property measured: CC50 at 72 h

| Structure string | Property measured | Measured |
| --- | --- | --- |
| C=C(C)[C@@H]1CC[C@]2(C(=O)O)CC[C@]3(C)[C@H](CC[C@@H]4[C@@]5(C)CC[C@H](O)C(C)(C)[C@@H]5CC[C@]43C)[C@@H]12 | CC50 at 72 h | 10.9 µM |
| C=C(C)[C@@H]1CC[C@]2(CO)CC[C@]3(C)[C@H](CC[C@@H]4[C@@]5(C)CC[C@H](O)C(C)(C)[C@@H]5CC[C@]43C)[C@@H]12 | CC50 at 72 h | 49.7 µM |

---

Assay: Selectivity index, ratio of CC50 for African green monkey Vero cells to IC50 for HSV-2 186
Format: functional
Ratio CC50/IC50 values for the compounds below.

| Compound | Limit qualifier | Ratio CC50/IC50 |
| --- | --- | --- |
| C=C(C)[C@@H]1CC[C@]2(C(=O)[O-])CC[C@]3(C)[C@H](CC[C@@H]4[C@@]5(C)CC[C@H](O)C(C)(C)[C@@H]5CC[C@]43C)[C@@H]12.C[N+](C)(C)CCO | > | 111.1 |
| C=C(C)[C@@H]1CC[C@]2(C(=O)N[C@H](C)C(=O)[O-])CC[C@]3(C)[C@H](CC[C@@H]4[C@@]5(C)CC[C@H](O)C(C)(C)[C@@H]5CC[C@]43C)[C@@H]12.C[N+](C)(C)CCO | > | 166.7 |
| C=C(C)[C@@H]1CC[C@]2(C(=O)N[C@H](C)C(=O)[O-])CC[C@]3(C)[C@H](CC[C@@H]4[C@@]5(C)CC[C@H](O)C(C)(C)[C@@H]5CC[C@]43C)[C@@H]12.CCCCCCCCCCCC[N+](C)(C)Cc1ccccc1 | = | 11.6 |
| C=C(C)[C@@H]1CC[C@]2(C(=O)[O-])CC[C@]3(C)[C@H](CC[C@@H]4[C@@]5(C)CC[C@H](O)C(C)(C)[C@@H]5CC[C@]43C)[C@@H]12.CCCCCCCCCCCC[N+](C)(C)Cc1ccccc1 | = | 1.7 |
| C=C(C)[C@@H]1CC[C@]2(C(=O)O)CC[C@]3(C)[C@H](CC[C@@H]4[C@@]5(C)CC[C@H](O)C(C)(C)[C@@H]5CC[C@]43C)[C@@H]12 [BETULINIC ACID] | > | 62.5 |
